B1: glmS ribozyme (parent)
chain: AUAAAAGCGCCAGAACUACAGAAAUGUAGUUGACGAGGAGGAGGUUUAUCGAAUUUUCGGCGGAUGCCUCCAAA

# Variants of: B1
# ASSAY PROTOCOL: KM; higher = weaker cofactor use; RNA array
# CONDITION CONTEXT: with glucosamine-6-phosphate
EXPERIMENTAL ENDPOINT: KM (µM)
Quick note: give the figure in µM, leave out the unit.

Looking up G32U G40A , I see its KM listed as 3450

Looking up G13U A53U , I see its KM listed as 3550

Looking up C16A C67A , I see its KM listed as 598

Looking up G13U U46A , I see its KM listed as 479
